// provenance: ChEMBL document CHEMBL4627268

assay: Cmax in Sprague-Dawley rat at 1 mg/kg, po by LC-MS/MS analysis; format: ADME, organism-based; design: dose 1 mg/kg, route oral; conditions: in vivo
This section presents molecules with their documented Cmax values.
Just the number please, in ng/mL, no unit attached.

// query Look up Cmax: COc1ccc(CN2CCC(C(=O)Nc3ccc(C(=O)N4CCN(Cc5ccc(C(F)(F)F)cc5)CC4)cc3)CC2)cn1
// result 1.9

// query Look up Cmax: COc1ccc(CN2CCC(c3ccc4[nH]c(C(=O)N5CCN(Cc6ccc(C(F)(F)F)cc6)CC5)nc4c3)CC2)cn1.Cc1ccc(S(=O)(=O)O)cc1.Cc1ccc(S(=O)(=O)O)cc1
// result 72
